Test: Cytotoxicity against human NCI-H929 cells after 3 days by Alamar blue assay
Format: functional, cell-based
Conditions: NCI-H929, 72 h
parameter: IC50

Answered cases to consult:
compound=CC(=O)O[C@H]1C=CC(=O)[C@]2(C)[C@H]3CC[C@]4(C)[C@@H]([C@H](C)[C@H]5CC(C)=C(CO)C(=O)O5)CC[C@H]4[C@@H]3C[C@H]3O[C@]132 parameter=IC50 value_measured="250 nM"
compound=CC1=C(CO)C(=O)O[C@@H]([C@@H](C)[C@H]2CC[C@H]3[C@@H]4C[C@H]5O[C@]56[C@@H](O)[C@H](n5ccc(=O)[nH]c5=O)CC(=O)[C@]6(C)[C@H]4CC[C@]23C)C1 parameter=IC50 value_measured="540 nM"
compound="CC1=C(CO)C(=O)O[C@@H]([C@@H](C)[C@H]2CC[C@H]3[C@@H]4C[C@H]5O[C@]56[C@@H](O)C=CC(=O)[C@]6(C)[C@H]4CC[C@]23C)C1 [WITHAFERIN A]" parameter=IC50 value_measured="250 nM"
compound=CC1=C(CO)C(=O)O[C@@H]([C@@H](C)[C@H]2CC[C@H]3[C@@H]4C[C@H]5O[C@]56[C@@H](O)[C@@H](N=[N+]=[N-])CC(=O)[C@]6(C)[C@H]4CC[C@]23C)C1 parameter=IC50 value_measured="1650 nM"

Shift focus to the following entry.
Ask: # get_value(readout='IC50', item= CC(=O)OCC1=C(C)C[C@H]([C@@H](C)[C@H]2CC[C@H]3[C@@H]4C[C@H]5O[C@]56C(=O)C=CC(=O)[C@]6(C)[C@H]4CC[C@]23C)OC1=O )
Result: 460 nM
